System: SUDIPGVI (diffuse intrinsic pontine glioma line)
Test: growth inhibition (% activity, log2 RLU normalised to DMSO / staurosporine); higher = more growth inhibition
Conditions: 33 µM
Answer each item with its documented growth inhibition.
Value expressed in %; do not type the unit.

Could you please provide reported growth inhibition for C[C@@H](Oc1cc(-c2cnn(C3CCNCC3)c2)cnc1N)c1c(Cl)ccc(F)c1Cl ? Thanks!
17.5

Item CCN1CCN(c2cc3c(cc2F)c(=O)c(C(=O)O)cn3C2CC2)CC1 : provide growth inhibition
1.16

Could you please provide reported growth inhibition for COC(=O)C1=CO[C@@H](O)[C@@H]2C(CO)=CC[C@H]12 ? Thanks!
-0.83

Tell me measured growth inhibition for COC(=O)Nc1nc2cc(Sc3ccccc3)ccc2[nH]1 please.
4.78

Return growth inhibition (reported value) for this compound: COC(=O)C1=C(C)NC(C)=C(C(=O)OCC(C)C)C1c1ccccc1[N+](=O)[O-] (centres undefined)
3.16

For the compound CCC[S+]([O-])c1ccc2[nH]c(NC(=O)OC)nc2c1 (centres undefined) , give its measured growth inhibition value.
-0.51

Fill in reported growth inhibition for this entry: CN(C)CCC=C1c2ccccc2CCc2ccccc21
2.05

Report growth inhibition, nothing else, for this compound: CCc1c(Cl)c(O)c(Cl)c(O)c1C(=O)O[C@H]1[C@H](O)[C@H](OC)[C@H](OC/C2=C\C=C\C[C@H](O)/C(C)=C/[C@H](CC)[C@@H](O[C@@H]3OC(C)(C)[C@@H](OC(=O)C(C)C)[C@H](O)[C@@H]3O)/C(C)=C/C(C)=C/C[C@@H]([C@@H](C)O)OC2=O)O[C@@H]1C
2.46

Using known records, supply growth inhibition for COc1cc(NS(=O)(=O)c2ccc(N)cc2)nc(OC)n1
2.95

###

Tested on: DIPGX37 (H3.3 K27M diffuse intrinsic pontine glioma line)
Assay: growth inhibition (% activity, log2 RLU normalised to DMSO / staurosporine); higher = more growth inhibition
Conditions: 33 µM
Could you please report measured growth inhibition for the items listed next?
Numbers only; they are read as %.

Return the recorded growth inhibition value; entry: Nc1nc2c(ncn2COC(CO)CO)c(=O)[nH]1
2.32

Supply growth inhibition value. Item: Nc1ccc(C(=O)NCC(=O)O)cc1
-0.247

Give reported growth inhibition value for N=C(N)NS(=O)(=O)c1ccc(N)cc1
3.55

Assign growth inhibition to the following record: CC(C)C(=O)Nc1ccc([N+](=O)[O-])c(C(F)(F)F)c1
2.28

Give a short answer stating reported growth inhibition for COCCc1ccc(OCC(O)CNC(C)C)cc1 (centres undefined) .
0.102

Give growth inhibition for the following molecule: CCN(CC)CCOC(=O)C1(C2CCCCC2)CCCCC1
-1.5

Consider the molecule CN(C)c1nc(N(C)C)nc(N(C)C)n1 . State its measured growth inhibition.
-1.75

Note growth inhibition for the molecule shown: O=C(O)Cc1cc(I)c(Oc2ccc(O)c(I)c2)c(I)c1
4.31

Quick one: give measured growth inhibition for Cc1nc(Nc2ncc(C(=O)Nc3c(C)cccc3Cl)s2)cc(N2CCN(CCO)CC2)n1
-3.6

Give the measured growth inhibition for C[C@]12CC[C@@H]3c4ccc(O)cc4C[C@@H](CCCCCCCCC[S+]([O-])CCCC(F)(F)C(F)(F)F)[C@H]3[C@@H]1CC[C@@H]2O (some centres undefined)
0.16

Identify measured growth inhibition associated with CO[C@H]1C(=O)[C@]2(C)[C@@H](OC)C[C@H]3OC[C@@]3(OC(C)=O)[C@H]2[C@H](OC(=O)c2ccccc2)[C@]2(O)C[C@H](OC(=O)[C@H](O)[C@@H](NC(=O)OC(C)(C)C)c3ccccc3)C(C)=C1C2(C)C
5.31

Consider the molecule CC(=O)OCC(=O)[C@@]12N=C(C)O[C@@H]1C[C@H]1[C@@H]3CCC4=CC(=O)C=C[C@]4(C)[C@H]3[C@@H](O)C[C@@]12C . State its measured growth inhibition.
0.767

# return recorded growth inhibition for entry Cc1cccc(C)c1NC(=O)C1CCCCN1C (centres undefined)
0.607

Answer with the recorded growth inhibition for the molecule listed here: C[C@H]1NC(=O)NC1=O
0.903

Given Fc1ccc(C(c2ccc(F)cc2)N2CCN(C/C=C/c3ccccc3)CC2)cc1 , respond with its growth inhibition.
2.42

Please give measured growth inhibition of the following entry: C#C[C@]1(O)CC[C@H]2[C@@H]3CCc4cc(O)ccc4[C@H]3CC[C@@]21C
1.91

Query growth inhibition for COc1ccc2[nH]cc(CCNC(C)=O)c2c1
-0.423

State, in one line, measured growth inhibition of Nc1ccc(/N=N/c2ccccc2)c(N)n1
-2.54

Please list growth inhibition recorded for the molecule Nc1ccc(S(=O)(=O)Nc2ncccn2)cc1
1.69

Provide growth inhibition value for the following molecule: O=NN(CCCl)C(=O)NC1CCCCC1
0.604

Consider the molecule Cc1cnc(C(=O)NCCc2ccc(S(=O)(=O)NC(=O)NC3CCCCC3)cc2)cn1 . State its measured growth inhibition.
2.29

Find the measured growth inhibition of CCCNC(C)C(=O)Nc1c(C)csc1C(=O)OC (centres undefined) and report it.
0.894

Provide one value: measured growth inhibition of CCCNC(=O)NS(=O)(=O)c1ccc(Cl)cc1
4.25

State, in one line, measured growth inhibition of CCN1CCN(C(=O)NC(C(=O)NC2C(=O)N3C(C(=O)O)=C(CSc4nnnn4C)CSC23)c2ccc(O)cc2)C(=O)C1=O (centres undefined)
0.256

Give the reported growth inhibition for this molecule. CC(=O)NS(=O)(=O)c1ccc(NC(=O)c2ccccc2C(=O)O)cc1
-0.137

Fill in growth inhibition for record O=C1c2c(O)ccc(O)c2C(=O)c2c(NCCNCCO)ccc(NCCNCCO)c21
58.9

Tell me its growth inhibition given O=C(Nc1cccc2c(=O)cc(-c3nnn[nH]3)oc12)c1ccc(OCCCCc2ccccc2)cc1 as the entry.
2.86

Give growth inhibition for Nc1nc(F)nc2c1ncn2[C@@H]1O[C@H](COP(=O)(O)O)[C@@H](O)[C@@H]1O
1.7

Note growth inhibition for the molecule shown: Clc1ccc(COC(Cn2ccnc2)c2ccc(Cl)cc2Cl)cc1 (centres undefined)
4.62

Please indicate growth inhibition recorded for NC1CCN(c2c(F)cc3c(=O)c(C(=O)O)cn(C4CC4)c3c2Cl)C1 (centres undefined)
-1.86

Give the value of growth inhibition reported for the following: Nc1cccc2c1C(=O)N(C1CCC(=O)NC1=O)C2=O (centres undefined)
2

Provide growth inhibition value for the following molecule: COc1cccc(N(C)C(=S)Oc2ccc3c(c2)CCCC3)n1
1.79

Answer with the recorded growth inhibition of Nc1ccn([C@H]2CC[C@@H](CO)O2)c(=O)n1 only.
0.314

// fetch growth inhibition given entry CCN1CC(CCN2CCOCC2)C(c2ccccc2)(c2ccccc2)C1=O (centres undefined)
4.12

###

Give measured growth inhibition for each item. Keep answers brief.
Test system: HGGX39 (paediatric high-grade glioma line)
Assay: growth inhibition (% activity, log2 RLU normalised to DMSO / staurosporine); higher = more growth inhibition
Details: 33 µM

Could you please provide reported growth inhibition for Nc1nc2n[nH]nc2c(=O)[nH]1 ? Thanks!
17.5%

Annotate the molecule CCCCc1oc2ccc(NS(C)(=O)=O)cc2c1C(=O)c1ccc(OCCCN(CCCC)CCCC)cc1 with its measured growth inhibition.
56.2%

For the molecule CCN(CC)CC(=O)Nc1c(C)cccc1C , report growth inhibition.
2.87%

Please supply the value of reported growth inhibition for the item CC(=O)OCC(=O)[C@@]1(O)[C@H](C)C[C@H]2[C@@H]3CCC4=CC(=O)C=C[C@]4(C)[C@@]3(F)[C@@H](O)C[C@@]21C
6.91%

Provide growth inhibition value for the following molecule: Nc1cccc2c1CN(C1CCC(=O)NC1=O)C2=O (centres undefined)
4.65%

Look up and report measured growth inhibition for this entry: Clc1ccc2c(c1)C(N1CCNCC1)=Nc1ccccc1O2
4.43%

Supply recorded growth inhibition for NCC(=O)CCC(=O)O here.
0.759%

Supply recorded growth inhibition for COc1cc([C@@H]2c3cc4c(cc3[C@@H](O[C@@H]3O[C@@H]5CO[C@@H](c6cccs6)O[C@H]5[C@H](O)[C@H]3O)[C@H]3COC(=O)[C@H]23)OCO4)cc(OC)c1O here.
14.2%

Provide one value: measured growth inhibition of CC(C)(CO)[C@@H](O)C(=O)NCCC(=O)O
-0.909%

Give me measured growth inhibition, please, for this molecule: N=C(N)NS(=O)(=O)c1ccc(N)cc1
3.26%

Quote growth inhibition reported for N#Cc1ccc(C(c2ccc(C#N)cc2)n2cncn2)cc1 please.
-0.621%

For the molecule NC(=O)NO , give its reported growth inhibition.
-1.77%

Give the reported value of growth inhibition for this record: CC[C@H]1OC(=O)[C@H](C)[C@@H](O[C@H]2C[C@@](C)(OC)[C@@H](O)[C@H](C)O2)[C@H](C)[C@@H](O[C@@H]2O[C@H](C)C[C@H](N(C)C)[C@H]2O)[C@](C)(O)C[C@@H](C)/C(=N\OCOCCOC)[C@H](C)[C@@H](O)[C@]1(C)O
1.63%

Please indicate growth inhibition recorded for CNC(=O)c1ccc(N2C(=S)N(c3ccc(C#N)c(C(F)(F)F)c3)C(=O)C2(C)C)cc1F
6.4%

Given COc1cc(Nc2c(C#N)cnc3cc(OCCCN4CCN(C)CC4)c(OC)cc23)c(Cl)cc1Cl , respond with its growth inhibition.
9.47%

Give the value of growth inhibition reported for the following: CCN1CCCC1CNC(=O)c1cc(S(=O)(=O)CC)c(N)cc1OC (centres undefined)
1.17%

Return the recorded growth inhibition value; entry: N[C@@H]1CONC1=O
0.732%

Fill in growth inhibition for record NCCCCCC(=O)O
2.5%

Identify measured growth inhibition corresponding to CCNC(=O)CCC/C=C\C[C@@H]1[C@@H](/C=C/[C@@H](O)CCc2ccccc2)[C@H](O)C[C@@H]1O
3.66%

Tell me growth inhibition reported for CCOc1ccc2nc3cc(N)ccc3c(N)c2c1
-1.26%

Find the measured growth inhibition of C=C(c1ccc(C(=O)O)cc1)c1cc2c(cc1C)C(C)(C)CCC2(C)C and report it.
12.4%

Look up growth inhibition of COc1cc2nccc(Oc3ccc(NC(=O)C4(C(=O)Nc5ccc(F)cc5)CC4)cc3)c2cc1OC and report it.
4.78%

Return value of growth inhibition for input Cc1ccc(C(=O)C(C)CN2CCCCC2)cc1 (centres undefined) , no commentary.
1.58%

Please report growth inhibition for the following molecule: CCCN(CCC)CCc1cccc2c1CC(=O)N2
2.83%

Supply growth inhibition value. Item: Cc1c(O)c(=O)ccn1C
0.26%

Look up growth inhibition of CCc1c(Cl)c(O)c(Cl)c(O)c1C(=O)O[C@H]1[C@H](O)[C@H](OC)[C@H](OC/C2=C\C=C\C[C@H](O)/C(C)=C/[C@H](CC)[C@@H](O[C@@H]3OC(C)(C)[C@@H](OC(=O)C(C)C)[C@H](O)[C@@H]3O)/C(C)=C/C(C)=C/C[C@@H]([C@@H](C)O)OC2=O)O[C@@H]1C and report it.
9.09%

Respond only with growth inhibition recorded for CN1CCN(C2=Nc3ccccc3Oc3ccc(Cl)cc32)CC1
6.27%

Read off the recorded growth inhibition for CCn1cc(C(=O)O)c(=O)c2cc(F)c(N3CCNCC3)cc21
3.3%

Could you please provide reported growth inhibition for CN(c1nccc(=O)[nH]1)C1CCN(c2nc3ccccc3n2Cc2ccc(F)cc2)CC1 ? Thanks!
4.67%

Determine its reported growth inhibition: Cc1cc(N)c2ccccc2[n+]1CCCCCCCCCC[n+]1c(C)cc(N)c2ccccc21
55.5%

Identify measured growth inhibition associated with O=C(CCCN1CCC(O)(c2ccc(Cl)cc2)CC1)c1ccc(F)cc1
5.5%

Quickly give me recorded growth inhibition for CC(C)(C)c1ccc(C(O)CCCN2CCC(C(O)(c3ccccc3)c3ccccc3)CC2)cc1 (centres undefined)
2.84%

Specify measured growth inhibition for CN(C)CCc1c[nH]c2ccc(C[C@H]3COC(=O)N3)cc12 .
-3.04%

Return value of growth inhibition for input CCCSc1nc(N[C@@H]2C[C@H]2c2ccc(F)c(F)c2)c2nnn([C@@H]3C[C@H](OCCO)[C@@H](O)[C@H]3O)c2n1 , no commentary.
5.25%
